The entries below come with measured TGI values attached.
Test system: ACHN renal
Experiment: NCI tumour cell line growth inhibition, 48 h

COMPOUND	TGI
CCCCOCCOC1=C(Cl)C(=O)c2c(O)ccc(O)c2C1=O	1.1 µM

Recall the recorded TGI for COC(=N)c1csc(C2OC(CO)C(O)C2O)n1 (stereo not drawn) with ACHN renal and state it. > 100 µM

# returns recorded TGI (system: ACHN renal) for `O=C(Nc1ncc(Cc2cccc(C(F)(F)F)c2)s1)c1ccc2c(c1)OCCO2` > 100 µM

====

Below: a set of entries, each annotated with reported GI50.
Test system: K-562 leukemia
Assay: NCI tumour cell line growth inhibition, 48 h

COMPOUND	TARGET SYSTEM	GI50
NC(N)=Nc1nc2ccccc2o1	K-562 leukemia	> 100 µM

Given the entry `Cc1cccc(NC2=C(Cl)C(=O)c3nc(C)ccc3C2=O)c1` , report its measured GI50. 0.45 µM

Requested read-out: GI50. Entry: C=CC12CCN(CC1)C(C(O)c1ccnc3ccc(OC)cc13)C2 (centres undefined) > 100 µM

Data provenance: PubChem BioAssay (NCI)
